TEST_DESCRIPTION: adrenalectomized assay (carrageenin edema in adrenalectomized rats)
Type: in vivo, Adrenalectomized Sprague Dawley Male Rats
TEST_CONTEXT: Rattus norvegicus, po, 3 h; 25 mg/kg; read-out: % Reduction (adrenalectomized rats)
Where a name gives a salt, the structure may show the parent alone.
Some molecules, each annotated with its measured inhibition in vivo at 25 mg/kg.
# do not omit the unit; it follows the number

Look over these answered cases.
>  <MOLECULE>
CC1=C(c2ccc(Cl)cc2)N2CCN=C2S1

>  <READOUT>
inhibition in vivo at 25 mg/kg

>  <READING>
19%

$$$$
>  <MOLECULE>
CCC1=C(c2ccc(Cl)cc2)N2CCN=C2S1

>  <READOUT>
inhibition in vivo at 25 mg/kg

>  <READING>
15%

$$$$
>  <MOLECULE>
CCC1=C(c2ccccc2)N2CCN=C2S1

>  <READOUT>
inhibition in vivo at 25 mg/kg

>  <READING>
31%

$$$$
>  <MOLECULE>
CCC1=C(c2ccccc2)N2CCCN=C2S1 [Compound 29, hydrobromide]

>  <READOUT>
inhibition in vivo at 25 mg/kg

>  <READING>
18%

$$$$
>  <MOLECULE>
CC(C)(C)C1=CSC2=NCCN12

>  <READOUT>
inhibition in vivo at 25 mg/kg

>  <READING>
23%

$$$$

Query molecule follows.
// inhibition in vivo at 25 mg/kg lookup, molecule = CC1=CSC2=NCCN12 , result: 46%
